B1: Triacylglycerol hydrolase DDHD2, residues 389 to 447; numbered along this chain, O94830 (parent)
chain: TLEEDLKKLQLSEFFDIFEKEKVDKEALALCTDRDLQEIGIPLGPRKKILNYFSTRKNS

variants of: B1; assay: abundance fitness (aPCA) (normalised: wild type 0, dead -1); higher = more abundant; growth selection in yeast, the domain comes from the species named; details: Homo sapiens
readout-name: abundance fitness

V23K : 0.101

Continue with the variant presented below.
Value lookup for abundance fitness; key = `E19A`
-0.225

Entry source: the Human Domainome abundance scans (Beltran et al. 2025)
